Origin of measurements: PubChem BioAssay (NCI)

tested on: SF-268 CNS; experiment: NCI-60 one-dose screen, 48 h (100 = growth as untreated, 0 = no growth, -100 = all killed); details: 10 µM
The panel holds about 83,000 compounds, 20% with a hit somewhere; the sample as a whole holds those more often.
In this section we review reported growth values for a set of molecules.
Just the number please, in %, no unit attached.

Some solved cases for reference:
INSERT INTO results (molecule, assayed_target, readout_kind, value_measured) VALUES
  ('Cc1c(O)cccc1O', 'SF-268 CNS', 'growth', 112),
  ('CCC(C)(O)c1ccc(C)cc1 (configuration not stated)', 'SF-268 CNS', 'growth', 92.9),
  ('CCC(O)CC(CC)CO (configuration not stated)', 'SF-268 CNS', 'growth', 113),
  ('C=C[Si](OC(C)=O)(OC(C)=O)OC(C)=O', 'SF-268 CNS', 'growth', 99.4),
  ('CCOC(=O)CCCC(=O)OCC', 'SF-268 CNS', 'growth', 96.7);

The reported growth of the molecule CSC(=N\N=C\c1ccc(N(C)C)cc1)/N=C/N(C)C was 111

Sample O=S(=O)(O)c1cc(O)c2c(N=Cc3ccccc3O)c(S(=O)(=O)O)ccc2c1 ; growth observed: 102

###

growth for assorted compounds
test system: NCI-H522 lung; assay: NCI-60 one-dose screen, 48 h (100 = growth as untreated, 0 = no growth, -100 = all killed); details: 10 µM
Compounds without any hit were thinned out: in the full panel of roughly 83,000, 20% have a hit.
Answer with a number only, understood to be in %.

Examples with their reported growth follow.
INSERT INTO results (compound, value_measured) VALUES
  ('COc1cccc(/C=N/NC(=S)NC2CC3CCC2C3)c1O (stereo not drawn)', 64.7),
  ('COc1cc(C(N)=O)cc(OC)c1OC', 102);

Now look at this one.
Summary line: CCOC(=O)c1ccc(NC(=S)P(=O)(c2ccccc2)c2ccccc2)cc1 , NCI-H522 lung, reported growth = 113

###

growth for assorted molecules
tested on: COLO 205 colon; experiment: NCI-60 one-dose screen, 48 h (100 = growth as untreated, 0 = no growth, -100 = all killed); conditions: 10 µM
Compounds without any hit were thinned out: in the full panel of roughly 83,000, 20% have a hit.
Just the number in %, nothing appended.

INSERT INTO measurements (molecule, value_measured) VALUES
  ('O=[N+]([O-])c1cccc(C(F)(F)F)c1', 108);

Record COc1cc2c3c(n(C)c(=O)c2cc1OC)-c1cc2c(cc1C3=O)OCO2 ; system COLO 205 colon; growth = 72.5

Given the molecule COc1cc(C(N)=O)cc(OC)c1OC and test system COLO 205 colon, the measured growth is 101

Form field growth for item CCOC(=O)Nc1cc2c(c(N)n1)N=C(c1ccccc1)CO2 on COLO 205 colon: 6.19

Record N#Cc1ccc(OC(=O)Nc2ccc(Cl)c(Cl)c2)cc1 ; system COLO 205 colon; growth = 96.3

###

system: ACHN renal; assay: NCI-60 one-dose screen, 48 h (100 = growth as untreated, 0 = no growth, -100 = all killed); details: 10 µM
The panel holds about 83,000 compounds, 20% with a hit somewhere; the sample as a whole holds those more often.
Readout Kind: growth (%)
// note: answer is a bare numeric in %

INSERT INTO results (compound, units_symbol, value_measured) VALUES
  ('CC1NC(=O)NC1CCCCCC(=O)O (stereo not given)', '%', 101),
  ('c1ccc2c(c1)Sc1ccccc1S2', '%', 109),
  ('O=[N+]([O-])c1ccc(/C=C/C=C/c2ccccc2)c(Cl)c1', '%', 100),
  ('Cc1ccc(C(=O)c2ccccc2)c(C)c1', '%', 103);

Sure, the documented growth for CC(=O)c1sc2c(c1OC(=O)c1ccc(Cl)cc1Cl)c(=O)n(-c1ccccc1)c(=S)n2-c1ccccc1 is -18.2

###

Below, each entry is listed alongside its reported growth.
system: 786-0 renal; experiment: NCI-60 one-dose screen, 48 h (100 = growth as untreated, 0 = no growth, -100 = all killed); details: 10 µM
The panel holds about 83,000 compounds, 20% with a hit somewhere; the sample as a whole holds those more often. Activity calls are given as the source filed them. Rule for the calls: active = growth percent below 10; inactive = the rest.

INSERT INTO measurements (molecule, value_measured) VALUES
  ('C=CCCCCCCCCCOC(C)=O', '108% (inactive)'),
  ('COc1ccc(-c2cc(-c3cc(-c4ccc(OC)cc4)nc(N)n3)nc(N)n2)cc1', '103% (inactive)'),
  ('C/C=C/CC(C)C(O)C1C(=O)NC(CC)C(=O)N(C)CC(=O)N(C)C(CC(C)C)C(=O)NC(C(C)C)C(=O)N(C)C(CC(C)C)C(=O)NC(C)C(=O)NC(C)C(=O)N(C)C(CC(C)C)C(=O)N(C)C(CC(C)C)C(=O)N(C)C(C(C)C)C(=O)N1C (centres undefined)', '41.9% (inactive)');

Proceeding to the next molecule to report its growth.
Reported growth (786-0 renal) for entry CCCCOC(=O)c1ccc(C(C)C)cc1 is 95.4% (inactive)

###

tested on: HT29 colon; assay: NCI-60 one-dose screen, 48 h (100 = growth as untreated, 0 = no growth, -100 = all killed); conditions: 10 µM
Compounds without any hit were thinned out: in the full panel of roughly 83,000, 20% have a hit. Calls of active or inactive are those of the source. How the source made its calls: active means growth percent below 10; inactive means the rest.
Readout Kind: growth

Take a look at these entries with their results.
INSERT INTO assay_data (compound, assayed_target, value_measured) VALUES
  ('CCCCCCCCO', 'HT29 colon', '111% (inactive)'),
  ('C[C@@H](c1ccccc1)[C@@H](C(=O)O)c1ccccc1', 'HT29 colon', '103% (inactive)'),
  ('N#CCc1ccc([N+](=O)[O-])cc1', 'HT29 colon', '104% (inactive)'),
  ('O=C(O)c1cccc([N+](=O)[O-])c1O', 'HT29 colon', '101% (inactive)'),
  ('CCCCOC(=O)c1ccc(C(C)C)cc1', 'HT29 colon', '94.9% (inactive)');

Quick note, growth for CC1=C(/C=C/C(C)=C/C=C/C(C)=C/CO)C(C)(C)CCC1 landed at 112% (inactive)

The recorded growth for CCOC(=O)CCCS(C)(=O)=O is 105% (inactive)

Lab note: O=[N+]([O-])c1ccc(S(=O)(=O)NN=C2CCCCC2)cc1 gave growth of 107% (inactive)

Per the record, COc1ccccc1C1OC2=Nc3cc(C)c(C)cc3NC2C1=O (stereo not given) has growth of 93.1% (inactive)

###

Entries and their measured growth follow.
tested on: SNB-75 CNS; experiment: NCI-60 one-dose screen, 48 h (100 = growth as untreated, 0 = no growth, -100 = all killed); settings: 10 µM
About 83,000 compounds went through this panel and 20% of them were active in at least one assay; those are over-represented in the sample as a whole.
Provide the reading as a plain figure in %.

// worked examples, growth included
INSERT INTO measurements (molecule, units_symbol, value_measured) VALUES
  ('CCN(CC)C(=O)/C=C(/C)c1ccccc1', '%', 93.2),
  ('CCCNC(=O)c1ccc(S(N)(=O)=O)cc1', '%', 72.6),
  ('CC(=O)NCc1cc(C)c(C)cc1C', '%', 87.9),
  ('CC(=Nc1ccccc1)C1=C(O)C(Cc2cccc(F)c2)NC1=O (stereo unspecified)', '%', 78.3),
  ('CCCNc1ccc(C2=NCCCN2)cc1', '%', 84.2),
  ('O=c1cc(-c2ccccc2)oc2c1ccc1ccccc12', '%', 71.4),
  ('C=CC(=O)OCCCCCCCC', '%', 91.2),
  ('CC1(C(=O)O)NC(C(=O)O)Cc2c1[nH]c1ccccc21 (stereo unspecified)', '%', 88.8),
  ('CC(=O)c1ccc(N=C(C#N)C2=C(O)c3ccccc3C2=O)cc1', '%', 78.8),
  ('C=CCc1cc(C(C)=O)cc(OC)c1O', '%', 89.2);

Input COc1cc([C@@H]2c3cc4c(cc3[C@H](O)[C@H]3COC(=O)[C@H]23)OCO4)cc(OC)c1OC . Output growth: 30.6

Looking up COc1ccccc1N=Nc1c(O)ccc2cc(S(=O)(=O)O)ccc12 , I see its growth listed as 69.6

The measured growth associated with Nc1ccc(N)c([N+](=O)[O-])c1 reads 102

The recorded growth for COC(=O)/C=C/C(=O)NC(N)=O is 76.2

In plain terms, Cc1ccc(/C(C#N)=C/c2ccc3c(c2)OCO3)cc1 has a documented growth of 67.8

growth recorded for this molecule, CC(=O)Cc1ccc(-c2ccccc2)cc1 , is 98.5
